Tested on: ovine ABCG2
Assay: in vitro
Details: sheep
MEASURED_ENDPOINT: Papp A→B at 4 h, 10 μM (nm/s)
The reply should contain only the number, in nm/s.

Reported Papp A→B at 4 h, 10 μM for `Nc1cc(C(Cl)=C(Cl)Cl)c(S(N)(=O)=O)cc1S(N)(=O)=O` : what is it?
11.3

====

Experiment: Plasma pharmacokinetics of clorsulon in lactating Assaf sheep
Assay type: in vivo
Details: female, sc, clorsulon 2 mg/kg s.c., alone or with ivermectin or abamectin 0.2 mg/kg s.c., mean ± SD, n = 6
MEASURED_ENDPOINT: MRT (h)
The reply should contain only the number, in h.

Reported MRT for Nc1cc(C(Cl)=C(Cl)Cl)c(S(N)(=O)=O)cc1S(N)(=O)=O [Clorsulon] : what is it?
25

====

Assay: Milk pharmacokinetics of clorsulon in lactating Assaf sheep
Type: in vivo
Settings: female, Assaf, sc; sheep milk; clorsulon 2 mg/kg s.c., alone or with ivermectin or abamectin 0.2 mg/kg s.c.; mean ± SD, n = 6
MEASURED_ENDPOINT: MRT (h)
The reply should contain only the number, in h.

Reported MRT for `Nc1cc(C(Cl)=C(Cl)Cl)c(S(N)(=O)=O)cc1S(N)(=O)=O` : what is it?
40.8

====

Assay: Milk pharmacokinetics of clorsulon in lactating Assaf sheep
Assay type: in vivo
Details: female, Assaf, sc; sheep milk; clorsulon 2 mg/kg s.c., alone or with ivermectin or abamectin 0.2 mg/kg s.c.; mean ± SD, n = 6
MEASURED_ENDPOINT: Tmax (h)
The reply should contain only the number, in h.

Reported Tmax for `Nc1cc(C(Cl)=C(Cl)Cl)c(S(N)(=O)=O)cc1S(N)(=O)=O` : what is it?
10

====

Experiment: Transepithelial transport of clorsulon across MDCKII parental cell monolayers
Type: in vitro ADME, Canine
Conditions: dog, MDCK; MDCKII parental cells; clorsulon 10 μM; with or without ivermectin 10 μM, abamectin 2.5 μM, Ko143 1 μM; mean ± SD, n ≥ 3; read-out: BL-AP (Papp B-A)
MEASURED_ENDPOINT: Papp B→A at 4 h, 10 μM

Reported Papp B→A at 4 h, 10 μM for Nc1cc(C(Cl)=C(Cl)Cl)c(S(N)(=O)=O)cc1S(N)(=O)=O [Clorsulon] : what is it?
2.41 ×10⁻⁶ cm/s

====

Test: Milk pharmacokinetics of clorsulon in lactating Assaf sheep
Format: in vivo
Conditions: female, Assaf, sc; sheep milk; clorsulon 2 mg/kg s.c., alone or with ivermectin or abamectin 0.2 mg/kg s.c.; mean ± SD, n = 6
MEASURED_ENDPOINT: AUC(0-inf) (ng·h/mL)
The reply should contain only the number, in ng·h/mL.

Reported AUC(0-inf) for `Nc1cc(C(Cl)=C(Cl)Cl)c(S(N)(=O)=O)cc1S(N)(=O)=O` : what is it?
20700

====

Experiment: Milk pharmacokinetics of clorsulon in lactating Assaf sheep
Type: in vivo
Conditions: female, Assaf, sc; sheep milk; clorsulon 2 mg/kg s.c., alone or with ivermectin or abamectin 0.2 mg/kg s.c.; mean ± SD, n = 6
MEASURED_ENDPOINT: Cmax (ng/mL)
The reply should contain only the number, in ng/mL.

Reported Cmax for `Nc1cc(C(Cl)=C(Cl)Cl)c(S(N)(=O)=O)cc1S(N)(=O)=O` : what is it?
650
